Listing of recorded GLUT4 mRNA by entry.
# System: Glut4
# protocol: Glut4 mRNA expression in adipocytes (real-time PCR)
# Format: cell-based, human
# condition_label: differentiating adipocytes transfected with oligomeric compound; Table 75
# Procedure: Expression of the four hallmark genes, HSL, aP2, Glut4, and PPARγ, is also measured in adipocytes transfected with oligomeric compounds of the invention. Cells are lysed on day nine post-transfection and total RNA is harvested. The amount of total RNA in each sample is determined using a Ribogreen Assay (Invitrogen Life Technologies, Carlsbad, Calif.). […]
In the oligonucleotide strings, read from the 5' end, every base follows the letter of its sugar. An asterisk marks phosphorothioate; unmarked linkages are phosphodiester. Other units and linkages are bracketed, terminal groups are in braces. A string of capitals states the bases alone. e = 2'-O-(2-methoxyethyl) (MOE); [5mC] = 5-methylcytosine
property_name: GLUT4 mRNA

[[record]]
substance = "327940 (antisense eG*eA*eA*e[5mC]*eA*eG*eG*eT*eA*eG*eT*e[5mC]*eT*eG*eA*eA*e[5mC]*eA*e[5mC]*eT*eG*eG*eG) [compound 327940]"
measured_target = "Glut4"
property_name = "GLUT4 mRNA"
reported = "43 percentage of untreated control (UTC)"

[[record]]
substance = "328129 (antisense eA*eG*e[5mC]*e[5mC]*eT*e[5mC]*e[5mC]*eT*eT*e[5mC]*eT*eT*e[5mC]*eT*e[5mC]*eG*eT*eA*e[5mC]*eT*eA) [compound 328129]"
measured_target = "Glut4"
property_name = "GLUT4 mRNA"
reported = "36 percentage of untreated control (UTC)"

[[record]]
substance = "328130 (antisense eA*e[5mC]*e[5mC]*eT*e[5mC]*eA*eG*eG*eT*eG*eG*eT*eT*eG*eA*eA*eG*eG*eA*eG*eA) [compound 328130]"
measured_target = "Glut4"
property_name = "GLUT4 mRNA"
reported = "55 percentage of untreated control (UTC)"

[[record]]
substance = "348119 (UCCAUAAAGUAGGAAACACUACA; anti-miR; all 2'-MOE, all phosphorothioate, methylation of C and T or U not given here) [compound 348119]"
measured_target = "Glut4"
property_name = "GLUT4 mRNA"
reported = "86 percentage of untreated control (UTC)"

[[record]]
substance = "344341 (CACAUGGUUAGAUCAAGCACAA; anti-miR; all 2'-MOE, all phosphorothioate, methylation of C and T or U not given here) [compound 344341]"
measured_target = "Glut4"
property_name = "GLUT4 mRNA"
reported = "14 percentage of untreated control (UTC)"

[[record]]
substance = "346694 (AACCCAUGGAAUUCAGUUCUCA; all 2'-MOE, all phosphorothioate, methylation of C and T or U not given here) [compound 346694]"
measured_target = "Glut4"
property_name = "GLUT4 mRNA"
reported = "5 percentage of untreated control (UTC)"

[[record]]
substance = "340358 (antisense CAGCUAUGCCAGCAUCUUGCC; all 2'-MOE, all phosphorothioate, methylation of C and T or U not given here) [compound 340358]"
measured_target = "Glut4"
property_name = "GLUT4 mRNA"
reported = "21 percentage of untreated control (UTC)"

[[record]]
substance = "328100 (antisense eA*eA*eT*e[5mC]*eT*e[5mC]*eT*eG*e[5mC]*eA*eG*eG*e[5mC]*eA*eA*eA*eT*eG*eT*eG*eA) [compound 328100]"
measured_target = "Glut4"
property_name = "GLUT4 mRNA"
reported = "39 percentage of untreated control (UTC)"

[[record]]
substance = "327911 (antisense eG*e[5mC]*eT*eA*e[5mC]*e[5mC]*eT*eG*e[5mC]*eA*e[5mC]*eT*eG*eT*eA*eA*eG*e[5mC]*eA*e[5mC]*eT*eT*eT*eT) [compound 327911]"
measured_target = "Glut4"
property_name = "GLUT4 mRNA"
reported = "48 percentage of untreated control (UTC)"


====

PPAR gamma (mRNA expression) by entry:
# System: PPARγ
# protocol: PPARγ mRNA expression in adipocytes (real-time PCR)
# Type: cell-based, human
# condition_label: adipocytes, 250 nM oligomeric compound, day nine post-transfection, relative to control (1.0); Table 16
In the oligonucleotide strings, read from the 5' end, every base follows the letter of its sugar. An asterisk marks phosphorothioate; unmarked linkages are phosphodiester. Other units and linkages are bracketed, terminal groups are in braces. A string of capitals states the bases alone. e = 2'-O-(2-methoxyethyl) (MOE); [5mC] = 5-methylcytosine
property_name: PPAR gamma (mRNA expression)

[[record]]
substance = "327922 (antisense eT*e[5mC]*eA*eG*eT*eT*eT*eT*eG*e[5mC]*eA*eT*eG*eG*eA*eT*eT*eT*eG*e[5mC]*eA*e[5mC]*eA) [compound 327922]"
measured_target = "PPARγ"
reported = 0.80

[[record]]
substance = "327930 (antisense eA*e[5mC]*eT*eA*eT*eA*e[5mC]*eA*eA*e[5mC]*e[5mC]*eT*e[5mC]*e[5mC]*eT*eA*e[5mC]*e[5mC]*eT*e[5mC]*eA) [compound 327930]"
measured_target = "PPARγ"
reported = 0.98

[[record]]
substance = "327941 (antisense eA*eA*e[5mC]*e[5mC]*e[5mC]*eA*e[5mC]*e[5mC]*eG*eA*e[5mC]*eA*eG*e[5mC]*eA*eA*eT*eG*eA*eA*eT*eG*eT*eT) [compound 327941]"
measured_target = "PPARγ"
reported = 0.86

[[record]]
substance = "327955 (antisense eG*e[5mC]*e[5mC]*e[5mC]*eT*eT*eT*e[5mC]*eA*eT*e[5mC]*eA*eT*eT*eG*e[5mC]*eA*e[5mC]*eT*eG) [compound 327955]"
measured_target = "PPARγ"
reported = 0.92

[[record]]
substance = "327926 (antisense eA*e[5mC]*eT*eA*eT*eG*e[5mC]*eA*eA*e[5mC]*e[5mC]*eT*eA*e[5mC]*eT*eA*e[5mC]*e[5mC]*eT*e[5mC]*eT) [compound 327926]"
measured_target = "PPARγ"
reported = 0.93

[[record]]
substance = "327934 (antisense eG*eG*eT*eA*e[5mC]*eA*eA*eT*e[5mC]*eA*eA*e[5mC]*eG*eG*eT*e[5mC]*eG*eA*eT*eG*eG*eT) [compound 327934]"
measured_target = "PPARγ"
reported = 0.72

[[record]]
substance = "327967 (antisense eA*e[5mC]*eT*eG*eT*eA*e[5mC]*eA*eA*eA*e[5mC]*eT*eA*e[5mC]*eT*eA*e[5mC]*e[5mC]*eT*e[5mC]*eA) [compound 327967]"
measured_target = "PPARγ"
reported = 0.89

[[record]]
substance = "327905 (antisense e[5mC]*eA*eG*eA*e[5mC]*eT*e[5mC]*e[5mC]*eG*eG*eT*eG*eG*eA*eA*eT*eG*eA*eA*eG*eG*eA) [compound 327905]"
measured_target = "PPARγ"
reported = 0.83

[[record]]
substance = "327931 (antisense eA*eA*e[5mC]*e[5mC]*eA*eT*eA*e[5mC]*eA*eA*e[5mC]*e[5mC]*eT*eA*e[5mC]*eT*eA*e[5mC]*e[5mC]*eT*e[5mC]*eA) [compound 327931]"
measured_target = "PPARγ"
reported = 1.56

[[record]]
substance = "327919 (antisense eG*eA*eA*eA*e[5mC]*e[5mC]*e[5mC]*eA*eG*e[5mC]*eA*eG*eA*e[5mC]*eA*eA*eT*eG*eT*eA*eG*e[5mC]*eT) [compound 327919]"
measured_target = "PPARγ"
reported = 0.57


====

# Tested on: A549 cells
# protocol: Cell cycle assay in A549 cells
# Assay type: cell-based, human
# condition_label: A549 cells, 100 nM, 24 hours; relative to the untreated control cells in that phase
property_name: % cells in cell cycle phase: aneuploid (%)

[[record]]
substance = "340350 (antisense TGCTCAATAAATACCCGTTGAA; all 2'-MOE, all phosphorothioate, methylation of C not given here) [compound 340350]"
measured_target = "A549 cells"
property_name = "% cells in cell cycle phase: aneuploid"
reported = 107

[[record]]
substance = "338836 (antisense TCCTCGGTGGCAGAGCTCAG; all 2'-MOE, all phosphorothioate, methylation of C not given here) [compound 338836]"
measured_target = "A549 cells"
property_name = "% cells in cell cycle phase: aneuploid"
reported = 153

[[record]]
substance = "338769 (antisense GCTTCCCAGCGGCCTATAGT; all 2'-MOE, all phosphorothioate, methylation of C not given here) [compound 338769]"
measured_target = "A549 cells"
property_name = "% cells in cell cycle phase: aneuploid"
reported = 157

[[record]]
substance = "338637 (antisense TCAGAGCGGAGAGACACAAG; all 2'-MOE, all phosphorothioate, methylation of C not given here) [compound 338637]"
measured_target = "A549 cells"
property_name = "% cells in cell cycle phase: aneuploid"
reported = 146

